From: patent US9873680B2

METHOD SUMMARY: Test B: Cytotoxicity Assay
Type: cell-based
RECORDED CONDITIONS: human, uninfected MT-4 cells, CellTiter-Glo
just bin them by CC50 at 5 days: group A: < 6 µM; group B: ≥ 6 µM and < 20 µM; group C: ≥ 20 µM

See these solved cases before continuing.
• Cn1nc(NS(C)(=O)=O)c2c(Cl)ccc(-c3ccc(-c4cnn(C5CCOCC5)c4)nc3[C@H](Cc3cc(F)cc(F)c3)NC(=O)Cn3nc(C(F)(F)F)c4c3C(F)(F)[C@@H]3C[C@H]43)c21 = group C
• Cc1cncc(C#Cc2ncc(-c3ccc(F)c(C(N)=O)c3)c([C@H](Cc3cc(F)cc(F)c3)NC(=O)Cn3nc(C(F)(F)F)c4c3C(F)(F)[C@@H]3C[C@H]43)n2)c1 = group A
• Cn1nc(NS(C)(=O)=O)c2c(Cl)ccc(-c3ccc(C#CC4(O)CC4)nc3[C@H](Cc3cc(F)cc(F)c3)NC(=O)Cn3nc(C(F)(F)F)c4c3C(F)(F)[C@@H]3C[C@H]43)c21 = group B

[ask] Band for the recorded CC50 at 5 days of Cn1nc(NS(C)(=O)=O)c2c(Cl)ccc(-c3ccc(-c4cnn(C5COC5)c4)nc3[C@H](Cc3cc(F)cc(F)c3)NC(=O)Cn3nc(C(F)(F)F)c4c3C(F)(F)[C@@H]3C[C@H]43)c21 ?
[reply] group C

[ask] Lookup N#Cc1ccc(C#Cc2ccc(-c3ccc4c(c3)C(=O)NC4)c([C@H](Cc3cc(F)cc(F)c3)NC(=O)Cn3nc(C(F)(F)F)c4c3C(F)(F)[C@@H]3C[C@H]43)n2)cc1
[reply] group C
